The following compounds are listed with their measured NF-kB reporter values.
- Test system: RAW-Dual (murine macrophage reporter line)
- assay name: NF-kB reporter (SEAP) activity fold change vs agonist alone; higher = enhanced NF-kB activity
- condition label: modulator concentration 10 µM; agonist: LPS 0.1 ug/mL
measurement label: NF-kB reporter

compound=CCOC(=O)C1=C(C)N(c2ccc(OC)cc2)C(=O)C1=Cc1ccc(C(C)C)cc1 target_system="RAW-Dual (murine macrophage reporter line)" measurement_label="NF-kB reporter" observed_measurement=1.01
compound=CN(C/C=C/C#CC(C)(C)C)Cc1cccc2ccccc12 target_system="RAW-Dual (murine macrophage reporter line)" measurement_label="NF-kB reporter" observed_measurement=0.987
compound=Cc1ccc(CN2C3=NCCCN3c3ccccc32)cc1.Cl target_system="RAW-Dual (murine macrophage reporter line)" measurement_label="NF-kB reporter" observed_measurement=1.25
compound=O=C(C(c1ccccc1)c1ccccc1)N1CCC(n2nccn2)CC1 target_system="RAW-Dual (murine macrophage reporter line)" measurement_label="NF-kB reporter" observed_measurement=1.09
compound="CCOC(=O)C1=C(C)NC(C)=C(C(=O)OC)C1c1ccc(Cl)cc1 (configuration not stated)" target_system="RAW-Dual (murine macrophage reporter line)" measurement_label="NF-kB reporter" observed_measurement=0.448
compound=COc1ccc(C=CC(=O)Nc2sc(C(=O)OC(C)C)c(C)c2C(N)=O)cc1 target_system="RAW-Dual (murine macrophage reporter line)" measurement_label="NF-kB reporter" observed_measurement=0.798
compound="Cl.Fc1ccc(C2CCNCC2COc2ccc3c(c2)OCO3)cc1 (configuration not stated)" target_system="RAW-Dual (murine macrophage reporter line)" measurement_label="NF-kB reporter" observed_measurement=0.938
compound=O=C(CCCN1CCC(O)(c2ccc(Cl)cc2)CC1)c1ccc(F)cc1 target_system="RAW-Dual (murine macrophage reporter line)" measurement_label="NF-kB reporter" observed_measurement=0.893
compound="Cc1nc(-c2ccc(S(=O)(=O)NC3CCc4nc(N(C)C)ncc4C3)cc2)co1 (configuration not stated)" target_system="RAW-Dual (murine macrophage reporter line)" measurement_label="NF-kB reporter" observed_measurement=1.21
compound="O=C(c1ccccc1)c1ccc2n1CCC2C(=O)O (configuration not stated)" target_system="RAW-Dual (murine macrophage reporter line)" measurement_label="NF-kB reporter" observed_measurement=1.09
compound=Ic1ccc2c3ccc(I)cc3c3[nH]c(-c4ccccc4)nc3c2c1 target_system="RAW-Dual (murine macrophage reporter line)" measurement_label="NF-kB reporter" observed_measurement=1.07
compound=NC(CO)(CO)CO target_system="RAW-Dual (murine macrophage reporter line)" measurement_label="NF-kB reporter" observed_measurement=1.1

---

- Test system: RAW-Dual (murine macrophage reporter line)
- assay name: NF-kB reporter (SEAP) activity fold change vs agonist alone; higher = enhanced NF-kB activity
- condition label: modulator concentration 10 µM; agonist: LPS 0.1 ug/mL
measurement label: NF-kB reporter

compound="COC(=O)C1C(=O)C(=CNCc2ccccc2)C(=O)CC1(C)C (configuration not stated)" target_system="RAW-Dual (murine macrophage reporter line)" observed_measurement=0.99
compound=CCCCCOC(=O)CSc1nnc(-c2ccc(Cl)cc2Cl)o1 target_system="RAW-Dual (murine macrophage reporter line)" observed_measurement=0.981
compound=CCCC1=NN2C(=N)C(=Cc3cccc(OCc4ccccc4F)c3)C(=O)N=C2S1 target_system="RAW-Dual (murine macrophage reporter line)" observed_measurement=0.999
compound=CC(=NNC(N)=S)C1=CC(C)(C)CCC1 target_system="RAW-Dual (murine macrophage reporter line)" observed_measurement=0.985
compound=O=C(NCC1(O)Cc2ccccc2C1)c1cccc(Br)c1 target_system="RAW-Dual (murine macrophage reporter line)" observed_measurement=1.02
compound=O=c1c(-c2ccc(O)cc2)coc2cc(O)cc(O)c12 target_system="RAW-Dual (murine macrophage reporter line)" observed_measurement=1.01
compound=COC1CCN(C2CCN(S(=O)(=O)c3ccccc3)CC2)CC1 target_system="RAW-Dual (murine macrophage reporter line)" observed_measurement=1.01
compound=N#Cc1c(N=Cc2ccc(Cl)cc2)sc2c1CCCC2 target_system="RAW-Dual (murine macrophage reporter line)" observed_measurement=1.01
compound=Clc1ccc(-c2nc(N3CCCCC3)nc3ccccc23)cc1 target_system="RAW-Dual (murine macrophage reporter line)" observed_measurement=0.975
compound=Cc1cc(OCCCOc2cccc3cccnc23)ccc1Cl target_system="RAW-Dual (murine macrophage reporter line)" observed_measurement=1.02
compound="CCN(CC)C(=O)Nc1ccc(OCC(O)CNC(C)(C)C)c(C(C)=O)c1 (configuration not stated)" target_system="RAW-Dual (murine macrophage reporter line)" observed_measurement=1.01
compound="CCOC(=O)C(C)N(c1ccc(OC)cc1)S(C)(=O)=O (configuration not stated)" target_system="RAW-Dual (murine macrophage reporter line)" observed_measurement=0.985
